Measured %max of individual entries
- protocolDescription: Cytoprotective activity in rat INS-1E cells assessed as restoration of recombinant rat IL-1beta/recombinant mouse IFN-gamma and TNF-alpha-suppressed ATP level after 48 hrs by Cell Titer-Glo assay
- Type: functional, cell-based

[
  {
    "structureSmilesString": "COc1ccc(O)c(/C=N/NC(=O)c2ccc(-c3nc4cc(C)c(C)cc4[nH]3)cc2)c1",
    "%max, %": 61
  },
  {
    "structureSmilesString": "Cc1cc2nc(-c3ccc(C(=O)N/N=C/c4ccc(O)c(O)c4)cc3)[nH]c2cc1C",
    "%max, %": 73
  },
  {
    "structureSmilesString": "Cc1cc2nc(-c3ccc(C(=O)N/N=C/c4cc(O)ccc4O)cc3)[nH]c2cc1C",
    "%max, %": 93
  },
  {
    "structureSmilesString": "Cc1cc2nc(-c3ccc(C(=O)N/N=C/c4ccc(O)cc4O)cc3)[nH]c2cc1C",
    "%max, %": 86
  },
  {
    "structureSmilesString": "COc1ccc(/C=N/NC(=O)c2ccc(-c3nc4cc(C)c(C)cc4[nH]3)cc2)c(O)c1",
    "%max, %": 54
  },
  {
    "structureSmilesString": "Cc1cc2nc(-c3ccc(C(=O)N/N=C/c4cccc(O)c4O)cc3)[nH]c2cc1C",
    "%max, %": 89
  },
  {
    "structureSmilesString": "Cc1cc2nc(-c3ccc(C(=O)N/N=C/c4cc(O)c(O)c(O)c4)cc3)[nH]c2cc1C",
    "%max, %": 98
  }
]

====

- protocolDescription: Cytoprotective activity in rat INS-1E cells assessed as suppression of recombinant rat IL-1beta/recombinant mouse IFN-gamma and TNF-alpha-induced caspase-3 expression after 48 hrs by Caspase-Glo 3/7 assay
- Assay type: functional, cell-based
- testConditions: Rattus norvegicus, INS-1E, 48 h

[
  {
    "structureSmilesString": "Cc1cc2nc(-c3ccc(C(=O)N/N=C/c4cc(O)ccc4O)cc3)[nH]c2cc1C",
    "op": "=",
    "IC50 (µM)": 8.81
  },
  {
    "structureSmilesString": "Cc1cc2nc(-c3ccc(C(=O)N/N=C/c4cccc(O)c4O)cc3)[nH]c2cc1C",
    "op": "=",
    "IC50 (µM)": 9.48
  },
  {
    "structureSmilesString": "Cc1cc2nc(-c3ccc(C(=O)N/N=C/c4ccc(O)cc4O)cc3)[nH]c2cc1C",
    "op": "=",
    "IC50 (µM)": 16.4
  },
  {
    "structureSmilesString": "COc1ccc(O)c(/C=N/NC(=O)c2ccc(-c3nc4cc(C)c(C)cc4[nH]3)cc2)c1",
    "op": ">",
    "IC50 (µM)": 30
  },
  {
    "structureSmilesString": "Cc1cc2nc(-c3ccc(C(=O)N/N=C/c4ccc(O)c(O)c4)cc3)[nH]c2cc1C",
    "op": ">",
    "IC50 (µM)": 30
  },
  {
    "structureSmilesString": "COc1ccc(/C=N/NC(=O)c2ccc(-c3nc4cc(C)c(C)cc4[nH]3)cc2)c(O)c1",
    "op": ">",
    "IC50 (µM)": 30
  },
  {
    "structureSmilesString": "Cc1cc2nc(-c3ccc(C(=O)N/N=C/c4cc(O)c(O)c(O)c4)cc3)[nH]c2cc1C",
    "op": "=",
    "IC50 (µM)": 18.5
  }
]
